Reference source for all entries: patent US12123009B2

System: soybean plantlets
Assay: High-throughput soybean screening for herbicide tolerance (plantlets)
Format: in vivo, soybean (A3555)
Parameters: key: 0 for poor tolerance, high damage, low green coloration; 1 for some tolerance, average damage, moderate green coloration; 2 for good tolerance, low damage, high green coloration
Settings: TP30; S-3100 spray five weeks post-transformation, scored day four
From the text: A high-throughput plant transformation and screening method was used to evaluate large numbers of constructs in transgenic plants for herbicide tolerance in early transformation plantlet tissue. This allowed for faster and higher volume screening of construct configurations and PPO enzymes. This permitted the side-by-side comparison of seven different HemG PPO enzymes with thirty-seven different targeting peptides using the same promoter and 3′UTR elements for gene expression. […]
value-kind: coloration score

Q: Name the recorded coloration score for H_N40: microbial HemG protoporphyrinogen oxidase, SEQ ID NO:6 (SEQ ID NO:15 lacking start methionine) (protein, listed as Pectobacterium carotovorum) MKALIVFSSRDGQTRAIASYIANTLKGTLECDVVNVLNANDIDLSQYDRVAIGASIRYGRFHPAVNQFIRKHLTSLQQLPSAFFSVNLTARKPEKRTIQTNAYTRKFLLNSPWQPDLCCVFAGALRYPRYRWFDRVMIQLIMRITGGETDSTKEIEYTDWQQVARFAQDFAQLAAKNPA .
A: 1

Q: Name the recorded coloration score for H_N100: microbial HemG protoporphyrinogen oxidase, SEQ ID NO:9 (SEQ ID NO:17 lacking start methionine; variant 20) (protein, listed as Enterobacter cloacae) MKTLILFSTRDGQTREIAAFLASELKEQGIYADVINLNRTEEIAWQEYDRVVIGASIRYGHFHPAVDRFVKKHTETLNSLPGAFFSVNLVARKAEKRTPQTNSYTRKFLLNSPWKPAACAVFAGALRYPRYRWYDRFMIRLIMKMTGGETDTRKEVVYTDWSQVASFAREIVQLTRSSRL .
A: 1
